Every entry's value here was drawn from ChEMBL document CHEMBL1132329.

Molecular target: Histone deacetylase
Test: Inhibitory activity against partially purified histone deacetylase of human leukemia K562 cells.
Assay type: cell-based
VALUE KIND: IC50 (µM)

COc1ccc(NC(=O)c2ccc(CNC(=O)OCc3cccnc3)cc2)c(N)c1; 44
COc1ccc(N)c(NC(=O)c2ccc(CNC(=O)OCc3cccnc3)cc2)c1; 4.6
Nc1ccc(F)cc1NC(=O)c1ccc(CNC(=O)OCc2cccnc2)cc1; 6
Nc1cc(Cl)ccc1NC(=O)c1ccc(CNC(=O)OCc2cccnc2)cc1; 40
Nc1ccc(Cl)cc1NC(=O)c1ccc(CNC(=O)OCc2cccnc2)cc1; 7.7
Cc1ccc(N)c(NC(=O)c2ccc(CNC(=O)OCc3cccnc3)cc2)c1; 2.8

[I] O=C(NCc1ccc(C(=O)Nc2ccccc2O)cc1)OCc1cccnc1
[II] CCCC(=O)[O-].[Na+] [SODIUM BUTYRATE]
[ask] Hi there, can you help? I need to know whether I or II has lower measured IC50. Return value: the label identifying the chosen record.
[reply] I
